I'd be grateful if you could share measured Maillard reaction-inhibiting activity (%) for these entries.
Tested on: Maillard reaction (lysozyme / fructose, dimer formation)
Test: Maillard reaction-inhibiting effects (lysozyme dimer formation with fructose, SDS-PAGE densitometry)
Assay type: biochemical
Settings: test compound concentration 0.1 mM; 10 mg/mL lysozyme, 200 mM fructose, pH 7.4, 37° C., 4 days; dimer formation inhibition rate

Give the measured Maillard reaction-inhibiting activity (%) of `N[C@@H](Cc1cn(Cc2c(F)c(F)c(F)c(F)c2F)c2ccccc12)C(=O)NO` . 95%

What value of Maillard reaction-inhibiting activity (%) has been recorded for this entry: `N[C@@H](Cc1ccc(OCc2ccc([N+](=O)[O-])cc2)cc1)C(=O)NO` 102%

GET /values?readout=Maillard reaction-inhibiting activity (%)&item= `N[C@@H](CCCNC(=O)c1ccc([N+](=O)[O-])cc1)C(=O)NO` −12%

Looking for the measured Maillard reaction-inhibiting activity (%) of `N[C@@H](CCC(=O)NCC(c1ccccc1)c1ccccc1)C(=O)NO` , can you help? 49%

Entry `CC(C)Cn1c(CC[C@H](N)C(=O)NO)nc2ccccc21` : reported Maillard reaction-inhibiting activity (%) = ? 53%

What value of measured Maillard reaction-inhibiting activity (%) is listed for `CCCCCn1cc(C[C@@H](N)C(=O)NO)c2ccccc21` ? 96%

// Maillard reaction-inhibiting activity (%) lookup, key: `CCCn1c(CC[C@H](N)C(=O)NO)nc2cc(Cl)c(Cl)cc21` 102%

Give the measured Maillard reaction-inhibiting activity (%) of N=C(N)NN [Aminoguanidine, reference compound] . −3%

May I ask what Maillard reaction-inhibiting activity (%) has been recorded for `CC(C)(C)C(=O)Nc1ccc(C[C@H](N)C(=O)NO)cc1` ? 23%

Recorded values, source patent US20080132539A1.
